Numbers sourced from patent US9796659B2.

# method: in vitro
# particulars: human, Caco-2, Recovery [%] mean ± s.d.
Where a name gives a salt, the structure may show the parent alone.
Listed here: items and their measured recovery at 90 min, 250 μM.
// return numeric value only (unit: %, not printed)

Below are worked cases with known answers.
>  <molecule>
CC[C@H]1OC(=O)[C@H](C)[C@@H](O[C@H]2C[C@@](C)(OC)[C@@H](O)[C@H](C)O2)[C@H](C)[C@@H](O[C@@H]2O[C@H](C)C[C@H](N(C)C)[C@H]2O)[C@](C)(O)C[C@@H](C)C(=O)[C@H](C)[C@@H](O)[C@]1(C)O [Erythromycin, erythromycin]

>  <recovery at 90 min, 250 μM [%]>
108

$$$$
>  <molecule>
COC(=O)/C=C/C(=O)OC [DMF, Dimethyl fumarate]

>  <recovery at 90 min, 250 μM [%]>
11.6

$$$$

Would you kindly look at the next entry?
Provide measured recovery at 90 min, 250 μM value, entry: COC(=O)/C=C/C(=O)OCC(O)COC(=O)/C=C/C(=O)OC [Example 7]
18.3
